# credit: patent US6069167A

test: in vivo; design: species or system male Sprague-Dawley rats; conditions: rat, Serum alpha tocopherol
OBSERVABLE: concentration at 4 h (ng/mL)
The answer is to be given in ng/mL; state only the numeric part.

May I ask what concentration at 4 h has been recorded for Cc1c(C)c2c(c(C)c1O)CCC(C)(CCCC(C)CCCC(C)CCCC(C)C)O2 (racemic) ?
9900
